B1: Cytoplasmic polyadenylation element-binding protein 2, residues 513 to 575; numbered along this chain, Q7Z5Q1 (parent)
chain: KRVEVKPYVLDDQMCDECQGARCGGKFAPFFCANVTCLQYYCEFCWANIHSRAGREFHKPLVK

Variants of: B1
test.summary: abundance fitness (aPCA) (normalised: wild type 0, dead -1); higher = more abundant; growth selection in yeast, the domain comes from the species named
condition.context: Homo sapiens
Each record here notes measured abundance fitness.
// response body must contain only the number

INSERT INTO assay_data (alteration, measurement) VALUES
  ('N48P', -0.141);

[ask] Using the record for G25K , report its abundance fitness.
[reply] 0.016

[ask] Check R52Q too.
[reply] 0.119

[ask] And then N48M , what is it?
[reply] 0.068

[ask] Likewise for G24R ?
[reply] -0.135

[ask] Another variant to check: H58I
[reply] -0.679

[ask] Param item: V3G
[reply] -0.1

[ask] One more variant: K59L
[reply] -0.219

[ask] Next: M14L
[reply] -0.167

[ask] What about D12F ?
[reply] -0.312

[ask] Also need S51H , thanks.
[reply] -0.054

[ask] // repeat for K6G and report
[reply] -0.017

[ask] And the next one, G20V ?
[reply] -0.418

[ask] Then this variant: E4Q
[reply] -0.099

[ask] Input I49T
[reply] -0.139

[ask] For F31L then?
[reply] -0.328

[ask] Same for H50T
[reply] -0.742

[ask] Could you do the same for M14G , please?
[reply] -0.187
